# System: CCRIS mutagenicity, Ames/micronucleus/aberration tests
# Experimental Protocol: CCRIS mutagenicity studies
# Experimental Parameters: Test System: CHINESE HAMSTER OVARY; Strain/Indicator: CHO-K1-BH4 (HGPRT)/6-THIOGUANINE; Metabolic Activation: NONE
Activity calls are given as the source filed them. How the calls were made is not given here.
Just give me one of these, please: yes for active, no for inactive

// below: answered compounds
[
  {
    "Smiles Record": "ClCc1ccccn1",
    "Class Label": "yes"
  },
  {
    "Smiles Record": "NCCNc1cccc2ccccc12",
    "Class Label": "no"
  }
]

Let us examine a further case.
Problem: What was the test verdict on `NCCCNCCCCN(CCCN)/[N+]([O-])=N/O` ?
Solution: yes

* * *

# Tested on: CCRIS mutagenicity, Ames/micronucleus/aberration tests
# Experimental Protocol: CCRIS mutagenicity studies
# Experimental Parameters: Test System: AMES SALMONELLA TYPHIMURIUM; Strain/Indicator: TA98; Metabolic Activation: NONE; Method: PREINCUBATION
Active and inactive are the calls of the source. How the calls were made is not given here.
Just give me one of these, please: true = active, false = inactive

[
  {
    "Compound": "O=Nc1cc2c3ccccc3ccc2c2ccccc12",
    "Assay System": "CCRIS mutagenicity, Ames/micronucleus/aberration tests",
    "Class Label": "true"
  },
  {
    "Compound": "CC(C)(C)OOC(C)(C)C",
    "Assay System": "CCRIS mutagenicity, Ames/micronucleus/aberration tests",
    "Class Label": "false"
  },
  {
    "Compound": "[Cl][Fe]([Cl])[Cl]",
    "Assay System": "CCRIS mutagenicity, Ames/micronucleus/aberration tests",
    "Class Label": "false"
  },
  {
    "Compound": "Clc1ccc(C(c2ccc(Cl)cc2)C(Cl)(Cl)Cl)cc1",
    "Assay System": "CCRIS mutagenicity, Ames/micronucleus/aberration tests",
    "Class Label": "false"
  },
  {
    "Compound": "CCCCCCCCCCCOC(=O)c1ccccc1C(=O)OCCCCCCCCCCC",
    "Assay System": "CCRIS mutagenicity, Ames/micronucleus/aberration tests",
    "Class Label": "false"
  }
]

Problem: What was the test verdict on CCCCCCCCCCCCCCC1CO1 (centres undefined) ?
Solution: false

Problem: What was the test verdict on C=CC1CC2C=CC1C2 (centres undefined) ?
Solution: false

Problem: What was the test verdict on `Oc1cc(O)c2cc(O)c(-c3cc(O)c(O)c(O)c3)[o+]c2c1` ?
Solution: false

Problem: What was the test verdict on `CNc1ccc(O)cc1` ?
Solution: false

Problem: What was the test verdict on O=C(c1ccccc1)C(O)c1ccccc1 (centres undefined) ?
Solution: false

Problem: What was the test verdict on `Cc1c(N=C=O)cccc1N=C=O` ?
Solution: false

Problem: What was the test verdict on `[O]=[W](=[O])([OH])[OH]` ?
Solution: false

Problem: What was the test verdict on `Cc1oc(=O)oc1COC(=O)[C@@H]1N2C(=O)[C@@H](NC(=O)[C@H](N)c3ccccc3)[C@H]2SC1(C)C` ?
Solution: false

Problem: What was the test verdict on C=C(C)C1CC=C(C)C(O)C1 (centres undefined) ?
Solution: false

* * *

# Tested on: CCRIS mutagenicity, Ames/micronucleus/aberration tests
# Experimental Protocol: CCRIS mutagenicity studies
# Experimental Parameters: Test System: AMES SALMONELLA TYPHIMURIUM; Strain/Indicator: TA100; Metabolic Activation: NONE; Method: STANDARD PLATE
Active and inactive are the calls of the source. The rule behind the calls is not given here.
Just give me one of these, please: yes (active), no (inactive)

// below: answered compounds
[
  {
    "Compound": "O=C/C=C/c1ccc([N+](=O)[O-])cc1",
    "Class Label": "yes"
  },
  {
    "Compound": "c1ccc2c(c1)CC[C@@H]1CCC[C@@H]3O[C@]213",
    "Class Label": "no"
  },
  {
    "Compound": "O=C(O)C1OC1C(=O)O (centres undefined)",
    "Class Label": "no"
  },
  {
    "Compound": "CC(C)(c1ccc(OCC2CO2)cc1)c1ccc(OCC2CO2)cc1 (centres undefined)",
    "Class Label": "yes"
  },
  {
    "Compound": "COc1ccc2c(c1)[C@H]1CCCC[C@@H]1[C@@H]1O[C@H]21",
    "Class Label": "no"
  }
]

Problem: What was the test verdict on `CCO[Si](C)(C)OCC` ?
Solution: no

* * *

# System: CCRIS mutagenicity, Ames/micronucleus/aberration tests
# Experimental Protocol: CCRIS mutagenicity studies
# Experimental Parameters: Test System: AMES SALMONELLA TYPHIMURIUM; Strain/Indicator: TA102; Metabolic Activation: RAT, LIVER, S-9, AROCLOR 1254; Method: STANDARD PLATE
# Text: The CCRIS database contains chemical records with carcinogenicity, mutagenicity, tumor promotion, and tumor inhibition test results. It was developed by the National Cancer Institute (NCI). Data are derived from studies cited in primary journals, current awareness tools, NCI reports, and other sources. Test results have been reviewed by experts in carcinogenesis and mutagenesis. CCRIS provides historical information from the years 1985 - 2011. It is no longer updated. […]
Activity calls are given as the source filed them. The rule behind the calls is not given here.
Just give me one of these, please: active, inactive

// below: answered compounds
[
  {
    "Compound": "COC1=CC(=O)c2c(nc(C)c3c2[nH]c2ccccc23)C1=O",
    "Class Label": "inactive"
  },
  {
    "Compound": "CCC1(c2ccccc2)C(=O)N=C(O)NC1=O (configuration not stated)",
    "Class Label": "inactive"
  },
  {
    "Compound": "O=C1CN=C(c2ccccc2)c2cc([N+](=O)[O-])ccc2N1",
    "Class Label": "inactive"
  },
  {
    "Compound": "CCC(CCCC(=O)O)COC(=O)c1ccccc1C(=O)O (configuration not stated)",
    "Class Label": "inactive"
  },
  {
    "Compound": "O=c1[nH]c(=O)n([C@H]2C[C@H](O)[C@@H](CO)O2)cc1CCCl",
    "Class Label": "active"
  }
]

Problem: What was the test verdict on `CNc1ccc(NCCO)c2c1C(=O)c1ccccc1C2=O` ?
Solution: active

Problem: What was the test verdict on `Cc1ncc([N+](=O)[O-])n1C` ?
Solution: active

Problem: What was the test verdict on `O=C1c2cccc(O)c2C(=O)c2c(O)cccc21` ?
Solution: active

Problem: What was the test verdict on `COc1cc(O)c2c(c1)C(=O)c1cc(C)cc(O)c1C2=O` ?
Solution: inactive

Problem: What was the test verdict on `C[N+]1(C)CCOCC1` ?
Solution: inactive

Problem: What was the test verdict on `Cc1cccc(C)c1C` ?
Solution: inactive

Problem: What was the test verdict on `Cc1nc2c(c3[nH]c4ccccc4c13)C(=O)C(N1CCN(C)CC1)=CC2=O` ?
Solution: inactive

Problem: What was the test verdict on `COC(=O)COc1ccc(Cl)cc1Cl` ?
Solution: inactive

Problem: What was the test verdict on `CC=C(C)C(=O)O[C@H]1[C@H](OC(C)=O)[C@]2(CO)[C@H](O)C[C@]3(C)C(=CC[C@@H]4[C@@]5(C)CC[C@@H](O[C@@H]6O[C@H](C(=O)O)[C@@H](O[C@@H]7O[C@H](CO)[C@@H](O)[C@H](O)[C@H]7O)[C@H](O)[C@H]6O[C@@H]6O[C@H](CO)[C@@H](O)[C@H](O)[C@H]6O)[C@](C)(CO)[C@@H]5CC[C@]43C)[C@@H]2CC1(C)C` ?
Solution: inactive

Problem: What was the test verdict on `O=C(O)/C(Cl)=C(/C(=O)O)C(Cl)Cl` ?
Solution: inactive

Problem: What was the test verdict on `CCN(CC)c1ccc(N=Nc2c(Cl)cc([N+](=O)[O-])cc2[N+](=O)[O-])cc1` ?
Solution: active

Problem: What was the test verdict on `Clc1cccnc1Cl` ?
Solution: inactive

* * *

# System: CCRIS mutagenicity, Ames/micronucleus/aberration tests
# Experimental Protocol: CCRIS mutagenicity studies
# Experimental Parameters: Test System: AMES SALMONELLA TYPHIMURIUM; Strain/Indicator: TA1535; Metabolic Activation: RAT, LIVER, S-9, AROCLOR 1254; Method: STANDARD PLATE
Activity calls are given as the source filed them. No rule for the calls is given here.
Readout: mutagenic call

The following molecules have reported results that may help.
[
  {
    "Molecule": "CCC/C=N/O",
    "Assay System": "CCRIS mutagenicity, Ames/micronucleus/aberration tests",
    "mutagenic call": "inactive; negative"
  },
  {
    "Molecule": "O=c1c(O)c(C2=CC(O)(CCO)C(O)(CCO)C=C2)oc2c1C(O)=CC(O)(CCO)C2 (stereo unspecified)",
    "Assay System": "CCRIS mutagenicity, Ames/micronucleus/aberration tests",
    "mutagenic call": "inactive; negative"
  },
  {
    "Molecule": "CC1=Nc2ccccc2C1(C)C",
    "Assay System": "CCRIS mutagenicity, Ames/micronucleus/aberration tests",
    "mutagenic call": "inactive; negative"
  },
  {
    "Molecule": "C=Cc1ccc(O)c(OC)c1",
    "Assay System": "CCRIS mutagenicity, Ames/micronucleus/aberration tests",
    "mutagenic call": "inactive; negative"
  }
]

Each of the following entries comes with a recorded value; kindly state mutagenic call for each.
1. CNCCCN1c2ccccc2CCc2ccccc21
2. NNc1nnc(NN)c2ccccc12

Solution:
1: inactive; negative; 2: inactive; negative
